B1: CPEB3 Ribozyme (parent)
chain: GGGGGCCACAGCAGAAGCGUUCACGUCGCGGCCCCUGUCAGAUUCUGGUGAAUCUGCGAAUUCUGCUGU

variants of: B1; experiment: self-cleavage, relative activity (ratio to wild type); higher = more cleavage; co-transcriptional
// map self-cleavage onto a label; ranges low bin = under 0.2, mid bin = from 0.2 up to 0.6, high bin = 0.6 and over

>>> answer_label("G4U C6A")
"low bin"
>>> answer_label("G19U G31A")
"mid bin"
>>> answer_label("G11U U49C")
"high bin"

Below: the item to evaluate.
Field: class (self-cleavage) — entry: C18U G68C
high bin
